test: Confirmation screen for delayed death inhibitors of the malarial parasite plastid, 48 hour incubation; further: nearly all actives have a fitted effect of over 65% in size; conditions: P. falciparum-infected erythrocytes, luciferase growth; series mostly up to 28.7 µM
Hit rate of the full screen: of about 2,300 compounds, about 1,200 (52%) were called active. Not shown: some 34% with an inconclusive outcome. The call rests on the fitted dose curve; in most records, active means well fitted inhibition curve with a large enough effect; inconclusive means small, poorly fitted or top-dose-only effect, or effect the other way; inactive means no such curve, though single readings can be large or run the other way. So high a share suggests a set chosen from earlier hits. This is one part of the list.
The reply should name one outcome from True = active, False = inactive

Problem: What did the test return for CCN(CC(=O)Nc1c(F)cccc1F)C(=O)c1ccc(S(=O)(=O)NCc2ccco2)cc1 ?
Result: False

Problem: Assay result, entry CC(C)OCCCNc1ncnc2c1[nH]c1ccc(F)cc12 — outcome?
Result: True

Problem: Recorded test outcome, item Cn1c(CCN2CCCC2)nc2cc(NS(=O)(=O)c3ccc(Cl)cc3)ccc21
Result: True

Problem: Which outcome was assigned to Cc1[nH]c(=O)c(C(=O)/C=C/c2ccccc2F)c2c1CCCC2 in this test?
Result: True

Problem: What classification did O=C(CSc1nc2ccccc2c(=O)n1Cc1ccc(C(=O)NC2CC2)cc1)NCc1ccco1 end up with in this test?
Result: True

Problem: So what was the verdict on CCOC(=O)CSc1nc2sc3c(c2c(=O)n1C1CCCCC1)CCN(C)C3 in this test?
Result: True

Problem: Recorded call for C=CCNC(=O)c1onc(CSc2cc(C)ccc2C)c1C(=O)O ?
Result: False

Problem: What did this assay record as the result for CC(NC(=O)CCl)c1ccccc1Br (centres undefined) ?
Result: True

Problem: Answer briefly: the call reported for Cc1ccc(OCC(=O)NNc2c3ccccc3nc3ccccc23)cc1 in this assay.
Result: True

Problem: Any idea what this test logged for CN1CCN(C(=O)CCN2C(=O)/C(=C/c3cccc(Br)c3)SC2=S)CC1 ?
Result: True

Problem: Name the outcome recorded for CC1CCCCN1C(=O)COC(=O)c1cccc(NS(=O)(=O)c2ccccc2)c1 (centres undefined) in the assay.
Result: False

Problem: Please let me know the test result on file for COc1ccccc1N(Cc1ccccc1)S(=O)(=O)c1cccc(C(=O)Nc2cc(C)ccn2)c1 .
Result: True

Problem: For this molecule, state the assay outcome: COc1ccc(CNCc2ccc3ccccc3c2)c(OC)c1
Result: True

Problem: What was the test verdict on COc1cccc(C(=O)N/N=C(\C)CC(=O)Nc2ccc(N(C)C)cc2)c1 ?
Result: False

Problem: Give the logged outcome of this assay for the following molecule: COc1ccc2[nH]c3c(NCCN(C(C)C)C(C)C)ncnc3c2c1
Result: True

Problem: Look up the recorded call for O=C(c1ccc(S(=O)(=O)Cc2ccccc2Cl)c([N+](=O)[O-])c1)N1CCOCC1 in this test.
Result: True

Problem: Short answer needed: outcome of this test for Cc1[nH]c(=O)c(C(=O)/C=C/c2ccccc2)c2c1CCCC2 ?
Result: True

Problem: What call does the record list for COc1ccc(CN2CCN(C(=O)c3ccc(CNS(=O)(=O)c4ccc(C)cc4)cc3)CC2)c(OC)c1OC ?
Result: True

Problem: # fetch the recorded call for CC(=O)c1ccc(NC(=O)C2Cc3ccccc3CN2C(=O)c2ccccc2)cc1 (centres undefined) here
Result: True

Problem: Entry Cc1cccc(OCC(=O)NNc2c3ccccc3nc3ccccc23)c1 : call = ?
Result: True

Problem: Given O=C(COc1ccccc1)NNc1c2ccccc2nc2ccccc12 , state the outcome it received in this test.
Result: True

Problem: Please let me know the test result on file for Cc1ccc(NC(=O)CN2C(=O)S/C(=C\c3ccccn3)C2=O)cc1C .
Result: False

Problem: # lookup: test call for Clc1cccc(OCCCCCN2CCOCC2)c1
Result: False

Problem: Status in this test for CCn1c(SCC(=O)Nc2ccc(C)cc2)nc2sc3c(c2c1=O)CCN(C)C3 ?
Result: True

Problem: GET /call?item= Cc1oc(-c2ccccc2Cl)nc1Cn1cccc1C1=NC(c2ccccc2)CO1 (centres undefined) returns the recorded outcome of this test.
Result: True

Problem: For this molecule, state the assay outcome: COc1ccccc1OCC(=O)NNc1c2ccccc2nc2ccccc12
Result: True

Problem: Which outcome was assigned to Cc1ccc(NC(=O)CN(C)C(=O)c2cccc(S(=O)(=O)NCc3ccco3)c2)cc1 in this test?
Result: False

Problem: For this molecule, state the assay outcome: COc1cc(OC)c(OC)cc1CN1CCN(C(=O)c2cccc3ccccc23)CC1
Result: True

Problem: Tell me the assay call for COc1ccccc1N(Cc1ccccc1)S(=O)(=O)c1cccc(C(=O)Nc2ccccn2)c1 please.
Result: True

Problem: Each molecule tested received a call. Report the one for COc1cccc(CN2CCN(c3nc4nonc4nc3N3CCCCC3)CC2=O)c1 .
Result: True

Problem: For Cc1ccc(SCC(=O)Nc2ccccc2C(=O)O)cc1 , what call appears in the results of this test?
Result: False

Problem: Called result for O=C(Oc1nsnc1N1CCCCC1)N1CCOCC1
Result: True

Problem: Just curious, what result did Cc1ccc(C(=O)C(C(=O)/C=C/c2ccccc2)=C2SCCCS2)cc1 get here?
Result: True

Problem: Test call, this molecule: O=C(c1ccc(S(=O)(=O)Cc2cc(F)ccc2F)c([N+](=O)[O-])c1)N1CCCC1
Result: True

Problem: Hi, sorry to bother you, what did the test record for Cc1ccc(S(=O)(=O)N(CC(=O)NCc2ccco2)c2ccccc2C)cc1 ?
Result: True

Problem: Each molecule tested received a call. Report the one for O=C(CSc1c2c(nc3ccccc13)CCCC2)NCc1ccco1 .
Result: False

Problem: Which outcome did this test record for the molecule Cn1c(CCN2CCCC2)nc2cc(NS(=O)(=O)c3ccccc3)ccc21 ?
Result: True

Problem: Outcome logged for O=C(CCCO)NNc1c2ccccc2nc2ccccc12 in this assay:
Result: True

Problem: Tell me the recorded outcome of this test for O=C(CSc1c2c(nc3ccc(Cl)cc13)CCCC2)NCCCN1CCOCC1 .
Result: True

Problem: Dear all, I need the recorded test outcome for O=C(Nn1c(COc2ccccc2)nc2ccccc2c1=O)C(Cl)(Cl)Cl , thank you.
Result: False

Problem: Each molecule tested received a call. Report the one for Cc1ccc(C(=O)NCCc2nnc3ccc(SCC(=O)NCc4ccc(F)cc4)nn23)cc1 .
Result: True

Problem: Returns: the outcome recorded for COc1ccc2[nH]c3c(NCCC4=CCCCC4)ncnc3c2c1 in this assay.
Result: True

Problem: What classification did COc1ccc(C#Cc2ccc3c(=O)c4ccccc4n(C)c3c2)cc1 end up with in this test?
Result: True

Problem: Call for entry Cc1ccc(C)c(N2CCN(S(=O)(=O)c3ccc4c(c3)NC(=O)CS4)CC2)c1 :
Result: True

* * *

Assay: Confirmation screen for delayed death inhibitors of the malarial parasite plastid, 48 hour incubation; further: nearly all actives have a fitted effect of over 65% in size
Conditions: P. falciparum-infected erythrocytes, luciferase growth; series mostly up to 28.7 µM
Text: The goal of this screen is to discover new antimalarial compounds that act by inhibiting the development of the apicoplast in the malarial parasite Plasmodium falciparum. The biochemical processes that make this organelle essential for erythrocytic stage parasites are not well understood. […] Growth inhibition is detected by a decrease in luciferase activity. […]
The whole screen tested about 2,300 compounds, of which about 1,200 (52%) were called active. Inconclusive results (about 34%) are left out. Calls come from the whole dose curve; as a rule, active = well fitted inhibition curve with a large enough effect; inconclusive = small, poorly fitted or top-dose-only effect, or effect the other way; inactive = no such curve, though single readings can be large or run the other way. The set was probably picked from earlier hits. Some of the results follow.
In this exercise, the only acceptable responses are YES (active), NO (inactive)

Problem: Hi, sorry to bother you, what did the test record for COc1ccccc1Nc1nnc(SCc2cc(=O)n3ccsc3n2)s1 ?
Result: YES

Problem: Identify the outcome logged in this assay for the compound shown: COc1ccccc1Nc1nnc(SCC(=O)Nc2nc(-c3ccc(F)cc3)cs2)s1
Result: YES

Problem: Just curious, what result did C=CCNC(=O)c1onc(CSc2ccc(F)c(F)c2)c1C(=O)O get here?
Result: NO

Problem: Recorded test call requested for CCN1CCC(Nc2ccnc3cc(Cl)ccc23)CC1
Result: YES

Problem: Please state the recorded outcome for this compound: CSc1c[n+]2c(n1C)CCC2
Result: NO

Problem: # outcome recorded in this test, key = CC(=O)Oc1ccc(-c2csc(Nc3cccnc3)n2)cc1
Result: NO

* * *

assay: Confirmation screen for delayed death inhibitors of the malarial parasite plastid, 48 hour incubation; further: nearly all actives have a fitted effect of over 65% in size; settings: P. falciparum-infected erythrocytes, luciferase growth; series mostly up to 28.7 µM
The whole screen tested about 2,300 compounds, of which about 1,200 (52%) were called active. About 34% were inconclusive and are not listed. Calls come from the whole dose curve; as a rule, active = well fitted inhibition curve with a large enough effect; inconclusive = small, poorly fitted or top-dose-only effect, or effect the other way; inactive = no such curve, though single readings can be large or run the other way. So high a share suggests a set chosen from earlier hits. This is one part of the list.
Would you mind answering with one of these outcomes? 1 for active, 0 for inactive

Problem: Please share the test call associated with Cc1oc(/C=N/NS(=O)(=O)c2ccccc2)cc1Br .
Result: 0

Problem: Which outcome did this test record for the compound C[C@@H]1c2cccc(O)c2C(O)=C2C(=O)[C@@]3(O)C(O)=C(C(N)=O)C(=O)[C@@H](N(C)C)[C@@H]3[C@@H](O)[C@@H]21 ?
Result: 1

Problem: So what was the verdict on O=C(/C=C/c1ccccc1O)c1ccco1 in this test?
Result: 0

Problem: Short answer needed: outcome of this test for N#C/C(=C\c1ccccn1)c1ccccn1 ?
Result: 1

Problem: GET /call?item= CCOC(=O)CCC(=O)Nc1ncnc2c1C(c1ccccc1)c1c(ccc3ccccc13)O2 (stereo not given) returns the recorded outcome of this test.
Result: 1

Problem: Recorded call for NC(=O)CC(NC(=O)Cc1ccc(Br)cc1)c1ccc(NC2CC3CCC2C3)c([N+](=O)[O-])c1 (stereo not given) ?
Result: 1

Problem: How did this test come out for Cc1cccc(CN2C(=O)c3ccccc3S(=O)(=O)c3ccc(C(=O)NCCCN4CCCC4)cc32)c1 ?
Result: 1

Problem: Outcome logged for CCOC(=O)c1c[nH]c2cc(OCC(C)C)c(OCC(C)C)cc2c1=O in this assay:
Result: 1

Problem: Please indicate how the test categorized O=C(NCCCN1CCCC1)c1ccc2c(c1)N(Cc1ccccc1F)C(=O)c1ccccc1S2=O (stereo not given) .
Result: 1

Problem: Status in this test for O=C(CCCN1C(=O)/C(=C\c2ccco2)SC1=S)Nc1ccc2ccccc2c1 ?
Result: 0

Problem: Dear colleague, could you share the recorded outcome for Cc1ccc(-c2cc(=O)c3ccc(F)cc3[nH]2)cc1 when you have a moment?
Result: 1

Problem: Field: outcome | Entry: Cc1cc(C)cc(C(=O)NC(CC(N)=O)c2ccc(NCC3CC3)c([N+](=O)[O-])c2)c1 (stereo not given)
Result: 0

Problem: Check the results log: what was the call for CCN1C(=O)c2ccccc2Sc2ccc(C(=O)NCCCN3CCCCC3)cc21 ?
Result: 1

Problem: Given Cc1cccc(N(Cc2ccccc2)C(=O)CN2C(=O)NC3(CCCCC3C)C2=O)c1 (stereo not given) , state the outcome it received in this test.
Result: 1

Problem: # outcome recorded in this test, key = CCn1c(=O)n(CC)c2cc(N3CCCC3)c(NC(=O)c3ccc(C)cc3)cc21
Result: 1

Problem: State the result this test recorded for O=[N+]([O-])c1cccc(-c2c[n+]3c(n2-c2ccccc2)SCC3)c1 .
Result: 1

Problem: Can you look up the reported call for C=C1c2c(Cl)ccc(O)c2C(O)=C2C(=O)[C@]3(O)C(O)=C(C(N)=O)C(=O)[C@@H](N(C)C)[C@@H]3[C@@H](O)C12 (stereo not given in full) for me?
Result: 1

Problem: Just curious, what result did Cc1sc2nc[nH]c(=O)c2c1-c1ccc(Cl)cc1 get here?
Result: 0

Problem: Returns: the outcome recorded for CCC1=C/C(=C/c2sc3ccccc3[n+]2CC)CC(C)(C)C1 in this assay.
Result: 1

Problem: What outcome does the record of this test show for COc1ccc2c(c1)c(CC(=O)Nc1nnc(C3CC3)s1)c(C)n2C(=O)c1ccc(Cl)cc1 ?
Result: 1
